Target: T1, mouse PD-1 expressed on cells (mouse, UniProt Q02242 25-288)
T1 construct: whole, on cells
T1 sequence (looked up): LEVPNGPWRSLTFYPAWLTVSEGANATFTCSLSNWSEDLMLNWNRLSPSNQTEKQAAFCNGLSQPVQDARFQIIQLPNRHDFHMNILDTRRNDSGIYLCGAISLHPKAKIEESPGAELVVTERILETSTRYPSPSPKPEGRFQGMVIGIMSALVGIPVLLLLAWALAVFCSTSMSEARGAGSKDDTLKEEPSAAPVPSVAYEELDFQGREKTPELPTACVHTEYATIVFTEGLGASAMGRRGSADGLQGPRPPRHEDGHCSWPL
Experiment: flow cytometry, mPD1-eff cells
measured_property: pEC50
Note on pEC50: it is the negative log10 of concentration, concentration in mol/L.

Past entries and their recorded results:
INSERT INTO results (binder, measured_property, measurement) VALUES
  ('m2C1 (antibody, V domains shown, R3A9 derivative; also called m3CM (apparent misprint)) VH: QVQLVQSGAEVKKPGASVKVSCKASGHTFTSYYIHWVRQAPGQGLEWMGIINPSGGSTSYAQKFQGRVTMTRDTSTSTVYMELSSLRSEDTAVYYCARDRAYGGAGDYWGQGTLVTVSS VL: DIQMTQSPSSLSASVGDRVTITCRASRSISSWLAWYQQKPGKAPKLLIYAASSLQSGVPSRFSGSGSGTDFTLTISSLQPEDFATYYCQQSYSIPATFGQGTKVEIK', 'pEC50', 9.43),
  ('m2A1 (antibody, V domains shown, R3A9 derivative; also called m2AM (apparent misprint)) VH: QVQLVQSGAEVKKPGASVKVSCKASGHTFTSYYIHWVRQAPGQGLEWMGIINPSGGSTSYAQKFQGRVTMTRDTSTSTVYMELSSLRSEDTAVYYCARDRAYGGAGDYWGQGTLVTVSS VL: DIQMTQSPSSLSASVGDRVTITCRASRGISSWLAWYQQKPGKAPKLLIYAASSLQSGVPSRFSGSGSGTDFTLTISSLQPEDFATYYCQQSYSPPWTFGQGTKVEIK', 'pEC50', 9.60),
  ('m3A7 (antibody, V domains shown, R3A9 derivative; also called 7115C) VH: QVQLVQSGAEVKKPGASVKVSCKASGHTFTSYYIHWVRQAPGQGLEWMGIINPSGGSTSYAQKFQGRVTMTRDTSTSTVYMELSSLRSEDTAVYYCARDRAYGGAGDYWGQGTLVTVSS VL: DIQMTQSPSSLSASVGDRVTITCRASRSISNWLAWYQQKPGKAPKLLIYAASSLQSGVPSRFSGSGSGTDFTLTISSLQPEDFATYYCQQSYSAPVTFGQGTKVEIK', 'pEC50', 9.57),
  ('R3A9 (antibody, V domains shown, also called 7115A; mPD1 parental (R3A9)) VH: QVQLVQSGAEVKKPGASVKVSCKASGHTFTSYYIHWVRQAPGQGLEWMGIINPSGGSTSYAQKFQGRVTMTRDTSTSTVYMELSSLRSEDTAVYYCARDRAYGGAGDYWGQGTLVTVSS VL: DIQMTQSPSSLSASVGDRVTITCRASQSVGTWLAWYQQKPGKAPKLLIYSASTLQSGVPSRFSGSGSGTDFTLTISSLQPEDFATYYCQQSYSAPLTFGGGTKVEIK', 'pEC50', 9.19);

m4D1 (antibody, V domains shown, R3A9 derivative) VH: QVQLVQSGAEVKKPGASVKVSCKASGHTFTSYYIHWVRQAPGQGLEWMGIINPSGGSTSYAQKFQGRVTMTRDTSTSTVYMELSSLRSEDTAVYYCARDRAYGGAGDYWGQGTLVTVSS VL: DIQMTQSPSSLSASVGDRVTITCRASQSISAWLAWYQQKPGKAPKLLIYKASSLESGVPSRFSGSGSGTDFTLTISSLQPEDFATYYCQQSYSPPATFGGGTKVEIK yielded pEC50 of 9.36
